These measurements were taken from paper PMC4011036.

Measured on: HIV-1 protease NL4-3 (Human immunodeficiency virus type 1 group M subtype B, UniProt P12497, Q495K)
Experiment summary: HIV-1 protease inhibition (FRET substrate cleavage), NL4-3 (WT)
Experimental conditions: FRET substrate I, 0.1 M sodium acetate, 1.0 M NaCl, 1.0 mM EDTA, 1.0 mM DTT, 10% DMSO, 1 mg/mL BSA, pH 4.7, fluorescence 340/490 nm, read-out: IC50 of HIV-1 protease inhibitors
For each entry below, report its IC50 value.
Answers are plain numbers, in nM.

As a guide, the following entries are already answered.
Molecule | Display unit | IC50
COC(=O)N[C@H](C(=O)N[C@@H](Cc1ccccc1)[C@@H](O)CN(Cc1ccc(-c2ccccn2)cc1)NC(=O)[C@@H](NC(=O)OC)C(C)(C)C)C(C)(C)C [ATV, atazanavir] | nM | 0.19
CCC[C@@]1(CCc2ccccc2)CC(O)=C([C@H](CC)c2cccc(NS(=O)(=O)c3ccc(C(F)(F)F)cn3)c2)C(=O)O1 [TPV, tipranavir] | nM | 0.24
CC(C)CN(C[C@@H](O)[C@H](Cc1ccccc1)NC(=O)O[C@H]1CCOC1)S(=O)(=O)c1ccc(N)cc1 [APV, amprenavir] | nM | 0.43

For Cc1c(O)cccc1C(=O)N[C@@H](CSc1ccccc1)[C@H](O)CN1C[C@H]2CCCC[C@H]2C[C@H]1C(=O)NC(C)(C)C [NFV, nelfinavir] the molecule record lists IC50 as 1.6
